Hey, just so you know, these numbers are from patent US20110118309A1.

- System: Hodgkin lymphoma cell lines, RPMI6666, HD-MY-Z, and L428
- PROTOCOL DESCRIPTION: Proliferation and viability of 3 Hodgkin lymphoma cell lines
- Type: cell-based
- CONDITION NOTES: range over 3 HL cell lines; units printed in the value (picomolar, nanomolar)
TEST READOUT: IC50

*Q* Would you mind telling me what IC50 value was observed for `Cc1[nH]c2ccccc2c1CCNCc1ccc(/C=C/C(=O)NO)cc1` ?
*A* 0.2 to 50 nM
